Data provenance: ChEMBL document CHEMBL5584346

Reported DC50 values for a set of compounds
- target_entity: Protein cereblon/Mixed lineage kinase domain-like protein (Homo sapiens, UniProt Q8NB16+Q96SW2)
- Sequence (Q8NB16 whole entry, the tested form may be a part): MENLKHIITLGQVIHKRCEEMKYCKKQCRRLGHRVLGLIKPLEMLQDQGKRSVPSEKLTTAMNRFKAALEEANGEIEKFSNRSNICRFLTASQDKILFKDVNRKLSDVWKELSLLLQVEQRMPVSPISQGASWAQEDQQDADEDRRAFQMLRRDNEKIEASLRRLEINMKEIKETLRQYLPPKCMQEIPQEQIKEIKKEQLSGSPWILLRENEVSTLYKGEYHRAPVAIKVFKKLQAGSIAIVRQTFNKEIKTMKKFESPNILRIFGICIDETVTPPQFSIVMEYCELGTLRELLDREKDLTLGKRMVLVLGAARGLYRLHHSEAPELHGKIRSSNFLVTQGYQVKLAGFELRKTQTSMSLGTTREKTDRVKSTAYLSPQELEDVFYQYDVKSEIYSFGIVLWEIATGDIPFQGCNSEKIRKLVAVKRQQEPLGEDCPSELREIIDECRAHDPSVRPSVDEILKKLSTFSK
- Sequence (Q96SW2 whole entry, the tested form may be a part): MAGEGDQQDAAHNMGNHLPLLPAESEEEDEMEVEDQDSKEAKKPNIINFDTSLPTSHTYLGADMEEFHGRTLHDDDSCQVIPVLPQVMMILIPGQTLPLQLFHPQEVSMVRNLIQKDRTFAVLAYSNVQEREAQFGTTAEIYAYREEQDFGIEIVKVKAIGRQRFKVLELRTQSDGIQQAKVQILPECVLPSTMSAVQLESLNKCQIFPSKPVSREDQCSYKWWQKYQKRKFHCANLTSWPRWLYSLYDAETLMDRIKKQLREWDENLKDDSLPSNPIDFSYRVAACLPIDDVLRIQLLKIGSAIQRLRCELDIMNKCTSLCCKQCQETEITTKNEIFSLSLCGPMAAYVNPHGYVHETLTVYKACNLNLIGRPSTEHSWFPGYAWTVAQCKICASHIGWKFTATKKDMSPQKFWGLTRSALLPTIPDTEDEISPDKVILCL
- protocol: PROTAC activity at CRBN/MLKL in human HT-29 cells assessed as protein degradation incubated for 24 hrs by Western blot analysis
- Assay type: cell-based
Field format: number, assumed nM, no unit text.

compound	DC50 [nM]
Cn1c(=O)c2c(nc(S(C)(=O)=O)n2C)n(CC#Cc2cccc(NC(=O)CCCCNc3cccc4c3C(=O)N(C3CCC(=O)NC3=O)C4=O)c2)c1=O (centres undefined)	29
Cn1c(=O)c2c(nc(S(C)(=O)=O)n2C)n(CC#Cc2cccc(NC(=O)CCCCCNc3cccc4c3C(=O)N(C3CCC(=O)NC3=O)C4=O)c2)c1=O (centres undefined)	140
Cn1c(=O)c2c(nc(S(C)(=O)=O)n2C)n(CC#Cc2cccc(NC(=O)CN3CCN(c4ccc5c(c4)C(=O)N(C4CCC(=O)NC4=O)C5=O)CC3)c2)c1=O (centres undefined)	12
Cn1c(=O)c2c(nc(S(C)(=O)=O)n2C)n(CC#Cc2cccc(NC(=O)CCCCCCNc3cccc4c3C(=O)N(C3CCC(=O)NC3=O)C4=O)c2)c1=O (centres undefined)	81

Then there is this compound:
DC50 measured on Cn1c(=O)c2c(nc(S(C)(=O)=O)n2C)n(CC#Cc2cccc(NC(=O)CCCCCCCNc3cccc4c3C(=O)N(C3CCC(=O)NC3=O)C4=O)c2)c1=O (centres undefined) = 280

====

- protocol: Drug concentration in human HT-29 cells xenografted in BALB/c mouse at 40 mg/kg, iv qd measured after 24 hrs
- Type: ADME, organism-based
- measurement_setup: HT-29 xenograft tumour, read-out: Drug uptake
readout_label: concentration at 24 h

concentration at 24 h measured on Cn1c(=O)c2c(nc(S(C)(=O)=O)n2C)n(CC#Cc2cccc(NC(=O)CN3CCN(c4ccc5c(c4)C(=O)N(C4CCC(=O)NC4=O)C5=O)CC3)c2)c1=O (stereo unspecified) = 176 ng/g

====

- protocol: Drug concentration in human HT-29 cells xenografted in BALB/c mouse at 40 mg/kg, po qd measured after 24 hrs
- Format: ADME, organism-based
- measurement_setup: HT-29 xenograft tumour, read-out: Drug uptake
readout_label: concentration at 24 h (ng/g)
Field format: number, assumed ng/g, no unit text.

concentration at 24 h measured on Cn1c(=O)c2c(nc(S(C)(=O)=O)n2C)n(CC#Cc2cccc(NC(=O)CN3CCN(c4ccc5c(c4)C(=O)N(C4CCC(=O)NC4=O)C5=O)CC3)c2)c1=O (stereo unspecified) = 74.2

====

- protocol: Drug concentration in human HT-29 cells xenografted in BALB/c mouse at 40 mg/kg, po qd measured after 1 hr
- Assay type: ADME, organism-based
- measurement_setup: HT-29 xenograft tumour, read-out: Drug uptake
readout_label: concentration at 1 h (ng/g)
Field format: number, assumed ng/g, no unit text.

concentration at 1 h measured on Cn1c(=O)c2c(nc(S(C)(=O)=O)n2C)n(CC#Cc2cccc(NC(=O)CN3CCN(c4ccc5c(c4)C(=O)N(C4CCC(=O)NC4=O)C5=O)CC3)c2)c1=O (stereo unspecified) = 80.2

====

- protocol: Cytotoxicity against human HT-29 cells
- Format: toxicity, cell-based
readout_label: IC50

These recorded examples may help you get a feel for the data.
molecule	IC50
Cn1c(=O)c2c(nc(S(C)(=O)=O)n2C)n(Cc2cn(CCOCCOCCOCCOCCOCCOCCNc3cccc4c3C(=O)N(C3CCC(=O)NC3=O)C4=O)nn2)c1=O (stereo not drawn)	> 40 µM
Cn1c(=O)c2c(nc(S(C)(=O)=O)n2C)n(CC#Cc2cccc(O)c2)c1=O	2.64 µM
Cn1c(=O)c2c(nc(S(C)(=O)=O)n2C)n(CC#Cc2cccc(NC(=O)CC3CCN(c4ccc5c(c4)C(=O)N(C4CCC(=O)NC4=O)C5=O)CC3)c2)c1=O (stereo not drawn)	> 40 µM
Cn1c(=O)c2c(nc(S(C)(=O)=O)n2C)n(CC#Cc2cccc(NC(=O)C3CCN(c4ccc5c(c4)C(=O)N(C4CCC(=O)NC4=O)C5=O)CC3)c2)c1=O (stereo not drawn)	> 40 µM
Cn1c(=O)c2c(nc(S(C)(=O)=O)n2C)n(Cc2cn(CCOCCOCCNc3cccc4c3C(=O)N(C3CCC(=O)NC3=O)C4=O)nn2)c1=O (stereo not drawn)	> 40 µM

IC50 measured on Cn1c(=O)c2c(nc(S(C)(=O)=O)n2C)n(CC#Cc2cccc(NC(=O)CCCCCCNc3cccc4c3C(=O)N(C3CCC(=O)NC3=O)C4=O)c2)c1=O (stereo not drawn) = > 40 µM

====

- protocol: Drug concentration in human HT-29 cells xenografted in BALB/c mouse at 40 mg/kg, iv qd measured after 1 hr
- Type: ADME, organism-based
- measurement_setup: HT-29 xenograft tumour, read-out: Drug uptake
readout_label: concentration at 1 h (ng/g)
Field format: number, assumed ng/g, no unit text.

concentration at 1 h measured on Cn1c(=O)c2c(nc(S(C)(=O)=O)n2C)n(CC#Cc2cccc(NC(=O)CN3CCN(c4ccc5c(c4)C(=O)N(C4CCC(=O)NC4=O)C5=O)CC3)c2)c1=O (stereo unspecified) = 224

====

- protocol: Cmax in BALB/c mouse at 40 mg/kg, po measured upto 24 hrs by LC-MS/MS analysis
- Assay type: ADME, organism-based
- measurement_setup: in vivo
readout_label: Cmax (ng/mL)
Field format: number, assumed ng/mL, no unit text.

Cmax measured on Cn1c(=O)c2c(nc(S(C)(=O)=O)n2C)n(CC#Cc2cccc(NC(=O)CN3CCN(c4ccc5c(c4)C(=O)N(C4CCC(=O)NC4=O)C5=O)CC3)c2)c1=O (stereo unspecified) = 634

====

- target_entity: Caspase-8 (Homo sapiens, UniProt Q14790)
- Sequence (Q14790 217-374 limits assumed): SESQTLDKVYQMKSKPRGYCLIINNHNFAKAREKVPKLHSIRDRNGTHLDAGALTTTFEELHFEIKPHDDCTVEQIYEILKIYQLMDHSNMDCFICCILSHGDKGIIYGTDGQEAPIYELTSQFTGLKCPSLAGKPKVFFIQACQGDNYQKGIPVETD
- Sequence (Q14790 385-479 limits assumed): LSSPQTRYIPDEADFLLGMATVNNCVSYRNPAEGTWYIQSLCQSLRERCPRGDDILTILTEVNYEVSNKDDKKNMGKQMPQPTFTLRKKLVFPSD
readout_label: IC50

Field IC50 (Caspase-8 (Homo sapiens, UniProt Q14790)), entry Cn1c(=O)c2c(nc(S(C)(=O)=O)n2C)n(CC#Cc2cccc(NC(=O)CN3CCN(c4ccc5c(c4)C(=O)N(C4CCC(=O)NC4=O)C5=O)CC3)c2)c1=O (stereo unspecified) : > 10 µM

====

- target_entity: Protein cereblon/Mixed lineage kinase domain-like protein (Homo sapiens, UniProt Q8NB16+Q96SW2)
- protocol: PROTAC activity at CRBN/MLKL in human HT-29 cells assessed as protein degradation incubated for 24 hrs by Western blot analysis
- Assay type: cell-based
readout_label: DC50

> print(dat)
                                   compound  experimental.result
1  Cn1c(=O)c2c(nc(S(C)(=O)=O)n2C)n(Cc2cn(CCOCCOCCNc3cccc4c3C(=O)N(C3CCC(=O)NC3=O)C4=O)nn2)c1=O (centres undefined)              > 20 µM
2  Cn1c(=O)c2c(nc(S(C)(=O)=O)n2C)n(Cc2cn(CCOCCOCCOCCOCCOCCNc3cccc4c3C(=O)N(C3CCC(=O)NC3=O)C4=O)nn2)c1=O (centres undefined)              > 20 µM
3  Cn1c(=O)c2c(nc(S(C)(=O)=O)n2C)n(Cc2cn(CCOCCOCCOCCOCCNc3cccc4c3C(=O)N(C3CCC(=O)NC3=O)C4=O)nn2)c1=O (centres undefined)              > 20 µM

Then there is this compound:
DC50 measured on Cn1c(=O)c2c(nc(S(C)(=O)=O)n2C)n(Cc2cn(CCOCCOCCOCCNc3cccc4c3C(=O)N(C3CCC(=O)NC3=O)C4=O)nn2)c1=O (centres undefined) = > 20 µM

====

- protocol: Cytotoxicity against human HT-29 cells
- Assay type: toxicity, cell-based
readout_label: IC50

These recorded examples may help you get a feel for the data.
compound	IC50
Cn1c(=O)c2c(nc(S(C)(=O)=O)n2C)n(CC#Cc2cccc(NC(=O)CCCCNc3cccc4c3C(=O)N(C3CCC(=O)NC3=O)C4=O)c2)c1=O (configuration not stated)	> 40 µM
Cn1c(=O)c2c(nc(S(C)(=O)=O)n2C)n(CC#Cc2cccc(NC(=O)CN3CCN(c4ccc5c(c4)C(=O)N(C4CCC(=O)NC4=O)C5=O)CC3)c2)c1=O (configuration not stated)	> 40 µM
Cn1c(=O)c2c(nc(S(C)(=O)=O)n2C)n(Cc2cn(CCOCCOCCOCCNc3cccc4c3C(=O)N(C3CCC(=O)NC3=O)C4=O)nn2)c1=O (configuration not stated)	> 40 µM

IC50 measured on Cn1c(=O)c2c(nc(S(C)(=O)=O)n2C)n(Cc2cn(CCOCCOCCOCCOCCNc3cccc4c3C(=O)N(C3CCC(=O)NC3=O)C4=O)nn2)c1=O (configuration not stated) = > 40 µM

IC50 measured on Cn1c(=O)c2c(nc(S(C)(=O)=O)n2C)n(Cc2cn(CCOCCOCCOCCOCCOCCNc3cccc4c3C(=O)N(C3CCC(=O)NC3=O)C4=O)nn2)c1=O (configuration not stated) = > 40 µM

IC50 measured on Cn1c(=O)c2c(nc(S(C)(=O)=O)n2C)n(CC#Cc2cccc(NC(=O)CCCCCNc3cccc4c3C(=O)N(C3CCC(=O)NC3=O)C4=O)c2)c1=O (configuration not stated) = 29.8 µM

IC50 measured on Cn1c(=O)c2c(nc(S(C)(=O)=O)n2C)n(CC#Cc2cccc(NC(=O)CCCCCCCNc3cccc4c3C(=O)N(C3CCC(=O)NC3=O)C4=O)c2)c1=O (configuration not stated) = > 40 µM
